Test system: adults and nymphal stages of the two-spotted mite
Experiment: Mite Foliage Spray Test
Assay type: in vivo, Tetranychus urticae (Koch)
Details: 4 days
Each entry below carries its reported Mite Adult rating.

Previously resolved entries follow.
Inquiry: Tell me the measured Mite Adult rating of CCCCCCCCCCCCCCCCCCOC(=O)OC1=C(c2c(C)cc(C)cc2C)C(=O)c2ccccc21 , please.
Reply text: 5 (100% mortality)

Inquiry: // returns reported Mite Adult rating for input CCCC(C)C(=O)OC1=C(c2ccc(C)cc2C)C(=O)c2ccccc21 (stereo not shown)
Reply text: 3 (an approximately 50% mortality)

Inquiry: Endpoint output: Mite Adult rating of Cc1cc(C)c(C2=C(OC(=O)Cc3ccccc3)c3ccccc3C2=O)c(C)c1 . Value?
Reply text: 5 (100% mortality)

Inquiry: Report Mite Adult rating for Cc1cccc(C)c1C1=C(OC(=O)C(C)(C)C)c2ccccc2C1=O please.
Reply text: 5 (100% mortality)

Inquiry: Tell me the measured Mite Adult rating of CC(C)c1cccc(C(C)C)c1C1=C(OC(=O)C(C)(C)C)c2ccccc2C1=O , please.
Reply text: 1

Next:
Inquiry: Which measured Mite Adult rating value corresponds to Cc1cc(C)c(C2=C(OC(=O)c3cc(Cl)cc(Cl)c3)c3ccccc3C2=O)c(C)c1 ?
Reply text: 5 (100% mortality)

Inquiry: What does the record list as Mite Adult rating for Cc1cccc(C(=O)OC2=C(c3c(C)cc(C)cc3C)C(=O)c3ccccc32)c1 ?
Reply text: 5 (100% mortality)

###

System: Perennial rye grass, crabgrass, red root pigweed, mustard
Assay: Preliminary Herbicide Seed Germination Test
Conditions: rating/maximum 20: 100 ppm only, four species, each rated 1 (no injury) to 5 (no seedlings emerged)
Form field: Herbicide (total preemergence rating) (one value per entry).

The following compounds have reported results that may help.
Inquiry: What does the record list as Herbicide (total preemergence rating) for Cc1cc(C)c(C2=C(OC(=O)OC3=C(c4c(C)cc(C)cc4C)C(=O)c4ccccc43)c3ccccc3C2=O)c(C)c1 ?
Reply text: 15/20

Inquiry: Endpoint output: Herbicide (total preemergence rating) of O=C(OC1=C(c2ccccc2)C(=O)c2ccccc21)c1ccccc1 [2-Phenyl-3-(benzoyloxy)indone] . Value?
Reply text: 4/20

Inquiry: Which Herbicide (total preemergence rating) is listed for Cc1cc(C)c(C2=C(OC(=O)c3c(C)cccc3C)c3ccccc3C2=O)c(C)c1 ?
Reply text: 4/20

Inquiry: For Cc1cc(C)c(NC(=O)OC2=C(c3c(C)cc(C)cc3C)C(=O)c3ccccc32)c(C)c1 , what is its reported Herbicide (total preemergence rating)?
Reply text: 4/20

---
Inquiry: Quick one: Herbicide (total preemergence rating) of CNC(=O)N(C)C(=O)OC1=C(c2c(C)cc(C)cc2C)C(=O)c2ccccc21 ?
Reply text: 16/20

Inquiry: Could you share which Herbicide (total preemergence rating) value was measured for CCCCCCCCCCCC(=O)OC1=C(c2c(C)cc(C)cc2C)C(=O)c2ccccc21 ?
Reply text: 17/20

Inquiry: What measured Herbicide (total preemergence rating) goes with COc1cccc(OC)c1C(=O)OC1=C(c2c(C)cc(C)cc2C)C(=O)c2ccccc21 ?
Reply text: 4/20

Inquiry: Look at this compound and give its reported Herbicide (total preemergence rating). CC(C)c1ccc(C2=C(OC(=O)C(C)(C)C)c3ccccc3C2=O)cc1
Reply text: 4/20

Inquiry: Which measured Herbicide (total preemergence rating) value corresponds to CSCC(=O)OC1=C(c2c(C)cc(C)cc2C)C(=O)c2ccccc21 ?
Reply text: 19/20

Inquiry: Param item = Cc1cc(C)c(C2=C(OC(=O)NC(C)(C)C)c3ccccc3C2=O)c(C)c1 ; retrieve measured Herbicide (total preemergence rating).
Reply text: 15/20

Inquiry: Entry CCCCC(CC)C(=O)OC1=C(c2ccccc2F)C(=O)c2ccccc21 (centres unmarked) has what Herbicide (total preemergence rating)?
Reply text: 4/20
